Source: PubChem BioAssay (NCI)

Tested on: MDA-MB-231 breast
Test: NCI tumour cell line growth inhibition, 48 h
# TGI per entry

# molecule, value-relation-sign, TGI / µM
measured = [
    ("C1CC2CN(CCCN3CCOCC3)C(C1)O2 (stereo unspecified)", ">", 100),
    ("Cc1c2c(c(C)c3c4c(oc13)CCCC4)C=NCC2", "=", 32.9),
    ("CC(Oc1ccccc1Cl)C(=O)NN1C(=O)CSC1c1ccccc1 (stereo unspecified)", ">", 100),
    ("CCN(c1cc(-c2ccc(CN3CCOCC3)cc2)cc(C(=O)NCc2c(C)cc(C)[nH]c2=O)c1C)C1CCOCC1", "=", 44.7),
    ("Cc1nn(-c2ccccc2)c(C)c1/C=N/N=C1\\S/C(=C\\c2ccc(Cl)cc2)C(=O)N1c1ccccc1", ">", 100),
    ("C#CCn1c(=O)c(C)cn(/C(=C\\C(=O)OCC)C(=O)OCC)c1=O", "=", 31.2),
    ("CC(C)(C)CC(C)(C)c1cc(O)c(O)c(CN2CCCCC2)c1", "=", 32.6),
    ("CC(=O)Nc1ccc(OC/C(N)=N/NC(=O)c2ccncc2)cc1", ">", 100),
    ("C=C1CCC2(C#N)[C@H]3[C@H](CC[C@@H]2C)[C@@H](C)C[C@@H](CC(C)(C)NC(=O)CN2CCC2=O)[C@H]13 (stereo partly specified)", "=", 44.3),
    ("Cc1ccc(S(=O)(=O)c2nc(-c3ccccc3)oc2S(C)=O)cc1 (stereo unspecified)", "=", 2.87),
    ("CCOP(=O)(OCC)/C(=C/c1cccs1)CC(C)=O", ">", 100),
    ("Cc1cc(OC(=O)NCn2cc(-c3ccccc3)nn2)ccc1Cl", ">", 100),
    ("O=C(Oc1ccc(CO[N+](=O)[O-])cc1)c1ccccc1", "=", 0.306),
    ("Cc1cc2c([nH]c3ccccc32)c(O)c1-c1c(C)cc2c([nH]c3ccccc32)c1O", "=", 33),
    ("CN(C)c1nc2ccccc2c2c1c1c(n2Cc2ccccc2)-c2ccccc2C1=O", ">", 100),
    ("COc1ccc2cc(CNCCCCCCNCc3ccc4cc(OC)ccc4c3)ccc2c1", "=", 1.38),
    ("C/C(=N\\NC(=S)N(C)C)c1cccnn1", ">", 100),
    ("CC1(C)CC(=O)C2(CC(CSc3ccccc3)C(CS(=O)(=O)c3ccccc3)C2)C(=O)C1 (stereo unspecified)", ">", 100),
    ("CCCCCCCCCCCCCCCCCCNc1nc(=O)n(C2CC(O)C(COP(=O)(O)O)O2)cc1F (stereo unspecified)", ">", 100),
    ("CCCCCCCCNCCC[C@@H](C)[C@H]1CC[C@H]2[C@@H]3[C@H](OCCCN)C[C@H]4C[C@H](OCCCN)CC[C@]4(C)[C@H]3C[C@H](OCCCN)[C@]12C", "=", 7.11),
    ("O=C1CC(c2[nH]nc3ccccc23)C(=O)N1c1ccccc1 (stereo unspecified)", ">", 100),
]

---

System: HOP-92 NSCLC
Experiment: NCI tumour cell line growth inhibition, 48 h; in the data active = GI50 below about 0.43 µM; inactive = the rest
Outcome codes: active, inactive

# compound, group-label
data = [
    ("Cc1nc2ccc(NC(=O)CCNC(=O)CCCc3ccc(CC(C(=O)O)C(=O)O)cc3)cc2s1", "inactive"),
    ("O=c1cc(N/N=C/c2ccc(F)cc2)c2cc(Cl)ccc2[nH]1", "inactive"),
    ("CCN=C1C=CC(=C(c2ccc(N(CC)CC)cc2)c2ccc(N(CC)CC)cc2)c2ccccc21", "active"),
    ("CN(C)c1nc2ccccc2c2c1c1c(n2Cc2ccccc2)-c2ccccc2C1=O", "inactive"),
    ("COC(=O)COc1ccc(/C=C2/N=C(c3ccccc3)N(c3c(C)n(C)n(-c4ccccc4)c3=O)C2=O)cc1", "inactive"),
    ("Cn1cc(-c2ccc3nnc(Sc4ccc5ncccc5c4)n3n2)cn1", "inactive"),
    ("Cc1c(-c2ccnc(N)n2)c2c(n1Cc1ccccc1)C(=O)c1ccccc1C2=O", "inactive"),
    ("COc1ccc(C(O)c2cc3c(N)c(C(=O)Nc4cccc(Cl)c4)sc3nc2C)cc1 (centres undefined)", "inactive"),
    ("COc1ccc2[nH]c(O)c(/C=c3/cc4c(c(-c5ccc(F)c(OC)c5)n3)=Nc3ccccc3-4)c2c1", "inactive"),
]
